Target: DC-SIGN ECD (Homo sapiens)
Sequence (Q9NNX6 66-404): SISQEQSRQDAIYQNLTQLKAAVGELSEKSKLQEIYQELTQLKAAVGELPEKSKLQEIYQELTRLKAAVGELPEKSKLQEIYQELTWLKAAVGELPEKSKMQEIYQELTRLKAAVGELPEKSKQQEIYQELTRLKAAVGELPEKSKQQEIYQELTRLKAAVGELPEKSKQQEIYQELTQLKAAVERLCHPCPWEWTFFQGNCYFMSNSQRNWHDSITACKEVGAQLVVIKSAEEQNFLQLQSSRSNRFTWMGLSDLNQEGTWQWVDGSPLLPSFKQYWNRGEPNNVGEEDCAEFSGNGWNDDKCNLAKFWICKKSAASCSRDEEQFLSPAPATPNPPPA
readout.type: IC50 (µM)

{"molecule": "CC(=O)N[C@@H](CCCCn1cc(CO[C@H]2O[C@H](CO[C@H]3O[C@H](CO)[C@@H](O)[C@H](O)[C@@H]3O)[C@@H](O)[C@H](O)[C@@H]2O)nn1)C(=O)NCC(=O)N[C@@H](CCCCn1cc(CO[C@H]2O[C@H](CO[C@H]3O[C@H](CO)[C@@H](O)[C@H](O)[C@@H]3O)[C@@H](O)[C@H](O)[C@@H]2O)nn1)C(=O)NCC(=O)N[C@@H](CCCCN)C(N)=O [D2]", "obs.value": 411}
{"molecule": "CC(=O)N[C@@H](CCCCn1cc(CO[C@H]2O[C@H](CO[C@H]3O[C@H](CO)[C@@H](O)[C@H](O)[C@@H]3O)[C@@H](O)[C@H](O[C@H]3O[C@H](CO)[C@@H](O)[C@H](O)[C@@H]3O)[C@@H]2O)nn1)C(=O)NCC(=O)N[C@@H](CCCCn1cc(CO[C@H]2O[C@H](CO[C@H]3O[C@H](CO)[C@@H](O)[C@H](O)[C@@H]3O)[C@@H](O)[C@H](O[C@H]3O[C@H](CO)[C@@H](O)[C@H](O)[C@@H]3O)[C@@H]2O)nn1)C(=O)NCC(=O)N[C@@H](CCCCN)C(N)=O [E2]", "obs.value": 306}

(A) CC(=O)N[C@@H](CCCCn1cc(CO[C@H]2O[C@H](CO[C@H]3O[C@H](CO)[C@@H](O)[C@H](O)[C@@H]3O)[C@@H](O)[C@H](O[C@H]3O[C@H](CO)[C@@H](O)[C@H](O)[C@@H]3O)[C@@H]2O)nn1)C(=O)NCC(=O)N[C@@H](CCCCN)C(N)=O [E1]
(B) CC(=O)N[C@@H](CCCCn1cc(CO[C@H]2O[C@H](CO[C@H]3O[C@H](CO)[C@@H](O)[C@H](O)[C@@H]3O)[C@@H](O)[C@H](O)[C@@H]2O)nn1)C(=O)NCC(=O)N[C@@H](CCCCN)C(N)=O [D1]
(C) CC(=O)N[C@@H](CCCCn1cc(CO[C@H]2O[C@H](CO)[C@@H](O)[C@H](O)[C@@H]2O)nn1)C(=O)NCC(=O)N[C@@H](CCCCn1cc(CO[C@H]2O[C@H](CO)[C@@H](O)[C@H](O)[C@@H]2O)nn1)C(=O)NCC(=O)N[C@@H](CCCCN)C(N)=O [A2]
Order each entry by recorded IC50, climbing from the minimum. Would you mind listing the labels in the order asked for? A, C, B
